Reference source: ChEMBL document CHEMBL1150285

Kindly supply the reported Ratio EC50 values for the records listed here.
- System: Human immunodeficiency virus 1
- methodDescription: Ratio of EC50 for nelfinavir-resistant HIV1 NL432 to EC50 for wild-type HIV1 NL432
- Format: functional
Give a plain numeric answer without units written out.

Inquiry: Would you mind telling me what Ratio EC50 value was observed for CC(=O)N[C@H](CSc1ccc2ccccc2c1)C(=O)N[C@@H](Cc1ccccc1)[C@H](O)C(=O)N1CSC(C)(C)[C@H]1C(=O)NCc1ccccc1C ?
Reply text: 0.42

Inquiry: What value of measured Ratio EC50 is listed for CC(=O)N[C@H](CSc1cccc2ccccc12)C(=O)N[C@@H](Cc1ccccc1)[C@H](O)C(=O)N1CSC(C)(C)[C@H]1C(=O)NCc1ccccc1C ?
Reply text: 0.32

Inquiry: Value lookup for Ratio EC50; key = Cc1ccccc1CNC(=O)[C@H]1N(C(=O)[C@@H](O)[C@H](Cc2ccccc2)NC(=O)[C@@H](CSCc2ccccc2)NS(C)(=O)=O)CSC1(C)C
Reply text: 0.09

Inquiry: Given the compound Cc1ccccc1CNC(=O)[C@H]1N(C(=O)[C@@H](O)[C@H](Cc2ccccc2)NC(=O)[C@@H](CSc2cccc3ccccc23)NS(C)(=O)=O)CSC1(C)C , what is its reported Ratio EC50?
Reply text: 0.07

Inquiry: May I ask what Ratio EC50 has been recorded for Cc1ccc(CSC[C@@H](NS(C)(=O)=O)C(=O)N[C@@H](Cc2ccccc2)[C@H](O)C(=O)N2CSC(C)(C)[C@H]2C(=O)NCc2ccccc2C)cc1 ?
Reply text: 0.09

Inquiry: Return reported Ratio EC50; argument: CC(=O)N[C@H](CSCc1ccccc1)C(=O)N[C@@H](Cc1ccccc1)[C@H](O)C(=O)N1CSC(C)(C)[C@H]1C(=O)NCc1ccccc1C
Reply text: 0.33

----------
Would you mind telling me the reported pEC50 of each entry?
- Test system: Human immunodeficiency virus 1
- methodDescription: Antiviral activity against nelfinavir-resistant HIV1 NL432
- Assay type: functional, organism-based
- conditionLabel: Human immunodeficiency virus 1, NL432
Note on pEC50: it is the negative log10 of concentration, concentration in mol/L.

Inquiry: Bench note: what pEC50 did COc1ccc(CSC[C@@H](NS(C)(=O)=O)C(=O)N[C@@H](Cc2ccccc2)[C@H](O)C(=O)N2CSC(C)(C)[C@H]2C(=O)NCc2ccccc2C)cc1 show?
Reply text: 9.17

Inquiry: Quick one: pEC50 for CC(=O)N[C@H](CSc1cccc2ccccc12)C(=O)N[C@@H](Cc1ccccc1)[C@H](O)C(=O)N1CSC(C)(C)[C@H]1C(=O)NCc1ccccc1C ?
Reply text: 8.20

Inquiry: Quick one: pEC50 for CSC[C@H](NC(=O)COc1cccc2cnccc12)C(=O)N[C@@H](Cc1ccccc1)[C@H](O)C(=O)N1CSC[C@H]1C(=O)NC(C)(C)C ?
Reply text: 7.08

Inquiry: # query: pEC50 of entry Cc1ccccc1CNC(=O)[C@H]1N(C(=O)[C@@H](O)[C@H](Cc2ccccc2)NC(=O)[C@@H](COCc2ccccc2)NS(C)(=O)=O)CSC1(C)C
Reply text: 8.64

Inquiry: What pEC50 value was documented for this compound, CC(=O)N[C@H](CSCc1ccc(C)cc1)C(=O)N[C@@H](Cc1ccccc1)[C@H](O)C(=O)N1CSC(C)(C)[C@H]1C(=O)NCc1ccccc1C ?
Reply text: 8.44

Inquiry: So what's the measured pEC50 for this one? CC(=O)N[C@H](CSCc1ccccc1)C(=O)N[C@@H](Cc1ccccc1)[C@H](O)C(=O)N1CSC(C)(C)[C@H]1C(=O)NCc1ccccc1C
Reply text: 8.23

Inquiry: Entry CC(=O)N[C@H](CSc1ccc2ccccc2c1)C(=O)N[C@@H](Cc1ccccc1)[C@H](O)C(=O)N1CSC(C)(C)[C@H]1C(=O)NCc1ccccc1C : reported pEC50 = ?
Reply text: 8.14

Inquiry: Given Cc1ccccc1CNC(=O)[C@H]1N(C(=O)[C@@H](O)[C@H](Cc2ccccc2)NC(=O)[C@@H](CSc2cccc3ccccc23)NS(C)(=O)=O)CSC1(C)C , state its recorded pEC50.
Reply text: 9.17

Inquiry: State the recorded pEC50 for this entry: Cc1ccccc1CNC(=O)[C@H]1N(C(=O)[C@@H](O)[C@H](Cc2ccccc2)NC(=O)[C@@H](CSc2ccc3ccccc3c2)NS(C)(=O)=O)CSC1(C)C
Reply text: 9.10

Inquiry: So what's the measured pEC50 for this one? CC(=O)N[C@H](CS(=O)(=O)c1ccc(Cl)cc1)C(=O)N[C@@H](Cc1ccccc1)[C@H](O)C(=O)N1CSC(C)(C)[C@H]1C(=O)NCc1ccccc1C
Reply text: 8.02

Inquiry: # pEC50 lookup, item CC(=O)N[C@H](COCc1ccccc1)C(=O)N[C@@H](Cc1ccccc1)[C@H](O)C(=O)N1CSC(C)(C)[C@H]1C(=O)NCc1ccccc1C
Reply text: 8.19

Inquiry: Return reported pEC50; argument: CC(=O)N[C@H](CCc1ccccc1)C(=O)N[C@@H](Cc1ccccc1)[C@H](O)C(=O)N1CSC(C)(C)[C@H]1C(=O)NCc1ccccc1C
Reply text: 7.74

Inquiry: Tell me the measured pEC50 of Cc1ccccc1CNC(=O)[C@H]1N(C(=O)[C@@H](O)[C@H](Cc2ccccc2)NC(=O)[C@@H](CSCc2ccccc2)NS(C)(=O)=O)CSC1(C)C , please.
Reply text: 8.74

Inquiry: Value lookup for pEC50; key = Cc1ccc(CSC[C@@H](NS(C)(=O)=O)C(=O)N[C@@H](Cc2ccccc2)[C@H](O)C(=O)N2CSC(C)(C)[C@H]2C(=O)NCc2ccccc2C)cc1
Reply text: 8.82

----------
- methodDescription: Selectivity index, ratio of CC50 for human MT4 cells to EC50 for HIV1 3B
- conditionLabel: MT4 cells
Hi there, I'd appreciate the recorded selectivity ratio for every entry that follows.
I'd appreciate a reply containing only the number, no unit.

Inquiry: Report selectivity ratio for Cc1c(O)cccc1C(=O)N[C@@H](CSc1ccccc1)[C@H](O)CN1C[C@H]2CCCC[C@H]2C[C@H]1C(=O)NC(C)(C)C please.
Reply text: 690

Inquiry: Record request: selectivity ratio value, item Cc1ccccc1CNC(=O)[C@H]1N(C(=O)[C@@H](O)[C@H](Cc2ccccc2)NC(=O)[C@@H](CSCc2ccccc2)NS(C)(=O)=O)CSC1(C)C
Reply text: 580

Inquiry: Dear colleague, I am looking for the recorded selectivity ratio of the following molecule: CC(=O)N[C@H](CSc1ccc2ccccc2c1)C(=O)N[C@@H](Cc1ccccc1)[C@H](O)C(=O)N1CSC(C)(C)[C@H]1C(=O)NCc1ccccc1C
Reply text: 460

Inquiry: Item CC(=O)N[C@H](CSc1cccc2ccccc12)C(=O)N[C@@H](Cc1ccccc1)[C@H](O)C(=O)N1CSC(C)(C)[C@H]1C(=O)NCc1ccccc1C has what recorded selectivity ratio?
Reply text: 470

Inquiry: Find the recorded selectivity ratio belonging to Cc1ccccc1CNC(=O)[C@H]1N(C(=O)[C@@H](O)[C@H](Cc2ccccc2)NC(=O)[C@@H](CSc2ccc3ccccc3c2)NS(C)(=O)=O)CSC1(C)C and report it.
Reply text: 470

Inquiry: Given CC(=O)N[C@H](CSCc1ccccc1)C(=O)N[C@@H](Cc1ccccc1)[C@H](O)C(=O)N1CSC(C)(C)[C@H]1C(=O)NCc1ccccc1C , state its recorded selectivity ratio.
Reply text: 1000

Inquiry: What value of measured selectivity ratio is listed for CC(=O)N[C@H](CSCc1ccc(C)cc1)C(=O)N[C@@H](Cc1ccccc1)[C@H](O)C(=O)N1CSC(C)(C)[C@H]1C(=O)NCc1ccccc1C ?
Reply text: 730

Inquiry: Fill in the blank: the reported selectivity ratio of COc1ccc(CSC[C@@H](NS(C)(=O)=O)C(=O)N[C@@H](Cc2ccccc2)[C@H](O)C(=O)N2CSC(C)(C)[C@H]2C(=O)NCc2ccccc2C)cc1 is ____.
Reply text: 1100

Inquiry: What value of selectivity ratio has been reported for the following molecule? Cc1ccc(CSC[C@@H](NS(C)(=O)=O)C(=O)N[C@@H](Cc2ccccc2)[C@H](O)C(=O)N2CSC(C)(C)[C@H]2C(=O)NCc2ccccc2C)cc1
Reply text: 520

Inquiry: Which measured selectivity ratio value corresponds to Cc1ccccc1CNC(=O)[C@H]1N(C(=O)[C@@H](O)[C@H](Cc2ccccc2)NC(=O)[C@@H](CS(=O)(=O)c2cccc3ccccc23)NS(C)(=O)=O)CSC1(C)C ?
Reply text: 310

Inquiry: Returns the measured selectivity ratio for the input molecule. Input: CC(=O)N[C@H](CS(=O)(=O)c1ccc2ccccc2c1)C(=O)N[C@@H](Cc1ccccc1)[C@H](O)C(=O)N1CSC(C)(C)[C@H]1C(=O)NCc1ccccc1C
Reply text: 570

Inquiry: Please report the recorded selectivity ratio for CC(=O)N[C@H](CS(=O)(=O)c1ccc(Cl)cc1)C(=O)N[C@@H](Cc1ccccc1)[C@H](O)C(=O)N1CSC(C)(C)[C@H]1C(=O)NCc1ccccc1C .
Reply text: 380

Inquiry: selectivity ratio lookup needed for CC(=O)N[C@H](CSc1ccc2ccccc2n1)C(=O)N[C@@H](Cc1ccccc1)[C@H](O)C(=O)N1CSC(C)(C)[C@H]1C(=O)NCc1ccccc1C , thanks.
Reply text: 64
